test-target: T1, GFP-9S library array, motif 4 ND N98A;D124W (synthetic construct, N98A;D124W)
T1 chain: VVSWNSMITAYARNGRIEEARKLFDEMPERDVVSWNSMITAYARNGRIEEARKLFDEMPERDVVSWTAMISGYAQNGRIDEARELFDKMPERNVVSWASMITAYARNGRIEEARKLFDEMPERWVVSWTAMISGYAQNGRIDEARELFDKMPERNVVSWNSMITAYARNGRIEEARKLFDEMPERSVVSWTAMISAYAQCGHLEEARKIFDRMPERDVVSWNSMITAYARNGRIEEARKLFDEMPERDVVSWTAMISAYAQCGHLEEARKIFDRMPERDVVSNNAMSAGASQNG
protocol-text: high-throughput RNA pulldown from lysate on Ni-NTA beads; HRP: 50 mM Tris pH 8, 150 mM NaCl, 1 mM beta-mercaptoethanol, 50 ug/ml BSA, 3 ug/ml yeast RNA, 0.5% heparin; ITC and FP: Tris pH 8, 200 mM KCl, 5% glycerol; MST: 50 mM Tris pH 8, 200 mM NaCl, 1 mM DTT, BSA, heparin, 0.05% Tween 20
measurement-context: tags: N-terminal His-eGFP; label: 5' IRDye 800CW
measured-parameter: pKd
Answers are plain numbers, as −log10 of the molar value.

binder | meas-value
AUUAAACGUGA (ssRNA) [IR-rpoA-A] | 6.86

Note: attention shifts to another entry.
Data request, read-out pKd, for AUUAUACGUGA (ssRNA) [IR-rpoA-U]
6.83
